# protocol_description: NCI Yeast Anticancer Drug Screen. Data for the sgs1 mgt1 strain (AID 161);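 further: 0% = growth of cultures given vehicle only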
# condition_summary: S. cerevisiae sgs1 mgt1 strain, at 5.0 µM (retest, dose inferred, filed as 0.5)
The panel holds about 79,000 compounds, 15% with a hit somewhere; the sample as a whole holds those more often. Activity calls are given as the source filed them. No stated cut-off is given here; in the data, active means growth inhibition above about 70%; inactive means the rest.
Hi there, use one of these labels in your reply, thanks! Yes (active), No (inactive)

Request: Call for entry `COc1cc(NCCCCCNC2CCCCC2)c2ncccc2c1` :
Result: No

Request: Call for entry O=S(=O)(c1ccccc1)C1CN=NC1c1ccccc1 (stereo not given) :
Result: No

Request: Call for entry O=C(O)C(O)C(O)C(O)C(O)CO.[Ag] (stereo not given) :
Result: Yes

---

# protocol_description: NCI Yeast Anticancer Drug Screen. Data for the bub3 strain (AID 167)
# condition_summary: S. cerevisiae bub3 mutant strain, at 50.0 µM (retest, dose inferred, filed as 5.0), active compounds read high
About 79,000 compounds went through this panel and 15% of them were active in at least one assay; those are over-represented in the sample as a whole. Where a SMILES comes first, the peptide text is derived from it. The star is where a group is joined. Cbz = O=C(OCc1ccccc1)*
growth inhibition overview
Provide only the numeric value, understood in %.

# annotated cases, reported growth inhibition shown
compound="NC1=NOC(=O)C1Cc1ccccc1 (stereo not drawn)" value_type="growth inhibition" recorded_measurement=-3
compound="C=C1C(=O)O[C@@H]2C[C@@]3(C)CCC[C@H](C)C3=C[C@H]12 (tested in a mixture with another compound)" value_type="growth inhibition" recorded_measurement=98
compound=Cc1ccc2c(ccc3ccccc32)c1 value_type="growth inhibition" recorded_measurement=38
compound=C=Nc1ccc2ccccc2c1Cc1c(O)ccc2ccccc12 value_type="growth inhibition" recorded_measurement=99
compound=CC(C)(C)c1cc(C(P(=O)(c2ccccc2)c2ccccc2)P(=O)(c2ccccc2)c2ccccc2)cc(C(C)(C)C)c1O value_type="growth inhibition" recorded_measurement=93
compound="COc1cccc2c1C(=O)c1c(O)c3c(c(O)c1C2=O)C[C@@](O)(C(=O)CO)C[C@@H]3OC1CC(N)CC(C)O1 (stereo partly drawn)" value_type="growth inhibition" recorded_measurement=99
compound="COc1cc2c(cc1OC)C(C)N(C)c1c-2c(OC(C)=O)cc2cc(OC)c(OC)cc12 (stereo not drawn)" value_type="growth inhibition" recorded_measurement=72
compound="CCOC(=O)CNC(=O)CNC(=O)CNC(=O)OCc1ccccc1 (Cbz-Gly-Gly-Gly-OEt)" value_type="growth inhibition" recorded_measurement=42
compound=Cc1ccc(-c2n[nH]c(=O)n2/N=C\c2ccccc2)cc1 value_type="growth inhibition" recorded_measurement=23
compound=O=C(OCc1ccccc1)N(CCCCN(CCCNCc1ccccc1)C(=O)OCc1ccccc1)CCCNCc1ccccc1 value_type="growth inhibition" recorded_measurement=99

Request: For the compound COc1ccccc1NC(=O)CC(=O)N1N=C(c2ccccc2)C(N=Nc2ccc(Cl)cc2)C1=O (stereo not drawn) , what growth inhibition is on record?
Result: 15

Request: For the compound CC(=O)O/N=C1/CCC2C3CC=C4CC(OC(C)=O)CCC4(C)C3CCC12C (stereo not drawn) , what growth inhibition is on record?
Result: 74

Request: For the compound CCCCNCCCNCCCNC(=O)c1csc(-c2csc(CCNC(=O)C(NC(=O)C(C)C(O)C(C)NC(=O)C(NC(=O)c3nc(C(CC(N)=O)NCC(N)C(N)=O)nc(N)c3C)C(OC3OC(CO)C(O)C(O)C3OC3OC(CO)C(O)C(OC(N)=O)C3O)c3cnc[nH]3)C(C)O)n2)n1 (stereo not drawn) , what growth inhibition is on record?
Result: 98
